These entries and their values trace back to patent US11548893B2.

Below, each entry is listed alongside its reported pEC50.
System: SUDV (glycoprotein, VSV pseudotype)
Assay: microbe, parasite or virus in culture
Type: cell-based, Sudan ebolavirus
Conditions: read-out: EC50 Pseudotype Assays SUDV
Here pEC50 is given on a logarithmic scale as minus log10 of the concentration in mol/L.

Take a look at these entries with their results.
CCC12CC3CC(C(=O)N[C@@H]4CCNC[C@H]4F)(C1)CC(c1ccccc1)(C3)C2 (mixture of isomers): 6.52
CCC12CC3CC(C(=O)NC4CCNCC4(C)C)(C1)CC(c1ccccc1)(C3)C2 (racemic): 6.40
C[C@H]1C[C@@H](NC(=O)C23CC4C[C@@](C)(C2)C[C@](c2ccccc2)(C4)C3)CCN1 [Example B4]: 6.78

# ---- query molecule ----
Q: What value of pEC50 has been recorded for this entry: C[C@H]1C[C@@H](NC(=O)C23CC4C[C@@](C)(C2)C[C@](c2ccccc2)(C4)C3)CCN1 [Example B15]
Ans: 6.21

====

Test: in vitro
Details: African green monkey, Cytotox CC50
measured.parameter: CC50 (µM)
Write the number in µM without appending the unit.

Take a look at these entries with their results.
CC12CC3CC(C(=O)N4CCC5(CCCN5)CC4)(C1)CC(c1ccccc1)(C3)C2 (racemic): 6.91
C[C@]12CC3CC(C(=O)N4CCC5(CCCN5)CC4)(C1)C[C@@](c1ccccc1)(C3)C2: 12.3
CC12CC3CC(C(=O)N4CCCNCC4)(C1)CC(c1ccccc1)(C3)C2 (racemic): 23.7
C[C@]12CC3CC(C(=O)N4CC5(CC(N)C5)C4)(C1)C[C@@](c1ccccc1)(C3)C2: 23.6
CC12CC3CC(C(=O)N[C@H]4CN5CCC4CC5)(C1)CC(c1ccccc1)(C3)C2 (mixture of isomers): 7.2

Q: What value of CC50 has been recorded for this entry: CC12CC3CC(C(=O)N4CC[C@H](N)C4)(C1)CC(c1ccccc1)(C3)C2 (mixture of isomers)
Ans: 11.3

Q: What value of CC50 has been recorded for this entry: "C[C@@H]1C[C@H](NC(=O)C23CC4C[C@@](C)(C2)C[C@](c2ccccc2)(C4)C3)CCN1"
Ans: 14.4

====

Experiment: in vitro
Conditions: African green monkey, Cytotox CC50
Below, each entry is listed alongside its reported CC50.
Write the number in µM without appending the unit.

Q: What value of CC50 has been recorded for this entry: CCC12CC3CC(C(=O)N[C@H]4CCN[C@@H](C)C4)(C1)CC(c1ccccc1)(C3)C2 (mixture of isomers)
Ans: 3.9

Q: What value of CC50 has been recorded for this entry: CCC1CNCCN1C(=O)C12CC3CC(C)(C1)CC(c1ccccc1)(C3)C2 (racemic)
Ans: 8.31

Q: What value of CC50 has been recorded for this entry: CC12CC3CC(C(=O)N[C@@H]4CCCN5CCC[C@H]45)(C1)CC(c1ccccc1)(C3)C2 (mixture of isomers)
Ans: 12.7

====

Assay: in vivo
Conditions: male, CD-1, mouse, 10 mg/kg
measured.parameter: half-life (h)
Write the number in h without appending the unit.

Q: What value of half-life has been recorded for this entry: CC12CC3CC(C(=O)N[C@H]4CC[C@@H](N)CC4)(C1)CC(c1ccccc1)(C3)C2.Cl (mixture of isomers)
Ans: 7

====

Tested on: SUDV (glycoprotein, VSV pseudotype)
Test: microbe, parasite or virus in culture
Format: cell-based, Sudan ebolavirus
Details: Vesicular stomatitis virus, Vero, 24 h, read-out: EC50 Pseudotype Assays SUDV
measured.parameter: pEC50
Here pEC50 is given on a logarithmic scale as minus log10 of the concentration in mol/L.

Q: What value of pEC50 has been recorded for this entry: CC12CC3CC(C(=O)N[C@H]4CC[C@H](CN)CC4)(C1)CC(c1ccccc1)(C3)C2 (mixture of isomers)
Ans: 7.52

Q: What value of pEC50 has been recorded for this entry: CC12CC3CC(C(=O)N4CCC[C@@H](N)C4)(C1)CC(c1ccccc1)(C3)C2 (mixture of isomers)
Ans: 6.66

Q: What value of pEC50 has been recorded for this entry: CC12CC3CC(C(=O)N4CCC5(CCCN5)CC4)(C1)CC(c1ccccc1)(C3)C2 (racemic)
Ans: 6.89

====

Experiment: in vivo
Conditions: male, CD-1, mouse
measured.parameter: Vd (L/kg)
Write the number in L/kg without appending the unit.

Q: What value of Vd has been recorded for this entry: CC12CC3CC(C(=O)N[C@H]4CC[C@@H](N)CC4)(C1)CC(c1ccccc1)(C3)C2.Cl (mixture of isomers)
Ans: 14

====

Target: UniProt P10632
Sequence (P10632 whole entry): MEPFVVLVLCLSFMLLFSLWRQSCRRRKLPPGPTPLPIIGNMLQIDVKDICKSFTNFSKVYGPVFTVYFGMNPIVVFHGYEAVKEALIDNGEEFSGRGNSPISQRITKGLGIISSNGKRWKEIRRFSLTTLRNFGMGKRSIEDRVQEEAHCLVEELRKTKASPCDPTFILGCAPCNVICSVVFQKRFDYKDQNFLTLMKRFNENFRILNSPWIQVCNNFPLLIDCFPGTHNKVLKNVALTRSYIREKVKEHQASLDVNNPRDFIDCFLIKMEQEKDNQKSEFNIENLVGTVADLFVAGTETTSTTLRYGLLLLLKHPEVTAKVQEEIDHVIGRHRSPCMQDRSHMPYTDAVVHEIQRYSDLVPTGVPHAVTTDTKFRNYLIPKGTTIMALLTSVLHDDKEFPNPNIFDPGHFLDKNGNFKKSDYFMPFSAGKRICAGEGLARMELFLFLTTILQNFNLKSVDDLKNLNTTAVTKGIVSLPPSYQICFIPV
measured.parameter: IC50

Q: API: value(readout= IC50, system= UniProt P10632, query= "C[C@]12CC3CC(C(=O)N[C@H]4CC[C@@H](N)CC4)(C1)C[C@@](c1ccccc1)(C3)C2.Cl" )
Ans: > 100 µM

====

Assay: in vitro
Settings: human, Caco-2
Below, each entry is listed alongside its reported efflux ratio.
Note: the reply should be a number with no unit written.

CC12CC3CC(C(=O)N[C@H]4CC[C@@H](N)CC4)(C1)CC(c1ccccc1)(C3)C2.Cl (mixture of isomers): 4.32

# ---- query molecule ----
Q: What value of efflux ratio has been recorded for this entry: "C[C@]12CC3CC(C(=O)N[C@H]4CC[C@@H](N)CC4)(C1)C[C@@](c1ccccc1)(C3)C2.Cl"
Ans: 2.71

====

Assay: in vitro
Settings: African green monkey, Cytotox CC50
measured.parameter: CC50 (µM)
Write the number in µM without appending the unit.

Take a look at these entries with their results.
CCC12CC3CC(CN[C@H]4CCN[C@@H](C)C4)(C1)CC(c1ccccc1)(C3)C2 (some centres unmarked) [Example A63]: 1.47
CCC12CC3CC(CNC4CCNCC4(C)C)(C1)CC(c1ccccc1)(C3)C2 (centres unmarked) [Example A61]: 1.24
CC12CC3CC(C(=O)NC4CC5CC4CN5)(C1)CC(c1ccccc1)(C3)C2 (racemic) [Example A31]: 26
CCC12CC3CC(C(=O)N[C@H]4CCNC[C@@H]4F)(C1)CC(c1ccccc1)(C3)C2 (mixture of isomers) [Example A19]: 7.3
CCC12CC3CC(C(=O)N4CCC(N)CC4)(C1)CC(c1ccccc1)(C3)C2 (racemic) [Example A32]: 6

Q: What value of CC50 has been recorded for this entry: CC12CC3CC(C(=O)N4CCC5(CCNCC5)CC4)(C1)CC(c1ccccc1)(C3)C2 (racemic) [Example A50]
Ans: 8.78

Q: What value of CC50 has been recorded for this entry: C[C@@]12CC3CC(CN4CCC(N)CC4)(C1)C[C@](c1ccccc1)(C3)C2 [Example C69]
Ans: 3.8

Q: What value of CC50 has been recorded for this entry: CCC12CC3CC(CNC4CCNCC4)(C1)CC(c1ccccc1)(C3)C2 (centres unmarked) [Example A62]
Ans: 1.62

====

Experiment: in vivo
Settings: male, CD-1, mouse, iv, 1 mg/kg
measured.parameter: Tmax (min)
Write the number in min without appending the unit.

Q: What value of Tmax has been recorded for this entry: CC12CC3CC(C(=O)N[C@H]4CC[C@@H](N)CC4)(C1)CC(c1ccccc1)(C3)C2.Cl (mixture of isomers)
Ans: 4.98

====

System: SUDV (glycoprotein, VSV pseudotype)
Test: microbe, parasite or virus in culture
Format: cell-based, Sudan ebolavirus
Conditions: Vesicular stomatitis virus, Vero, 24 h, read-out: EC50 Pseudotype Assays SUDV
measured.parameter: EC50 (nM)
Write the number in nM without appending the unit.

C[C@@]12CC3CC(C(=O)N[C@@H]4CCNC[C@H]4F)(C1)C[C@](c1ccccc1)(C3)C2 [Example C5]: 775
C[C@@]12CC3CC(C(=O)N[C@H]4CC[C@@H](N)CC4)(C1)C[C@](c1ccccc1)(C3)C2 [Example C2]: 767
C[C@]12CC3CC(CN4CCC(N)CC4)(C1)C[C@@](c1ccccc1)(C3)C2 [Example B69]: 710
CC12CC3CC(C(=O)N[C@H]4CC[C@@H](N)CC4)(C1)CC(c1ccccc1)(C3)C2.Cl (mixture of isomers) [Example A2]: 270
CC12CC3CC(C(=O)N4CCC5(CCN5)CC4)(C1)CC(c1ccccc1)(C3)C2 (racemic) [Example A51]: 520

Q: What value of EC50 has been recorded for this entry: C[C@@]12CC3CC(C(=O)N[C@H]4CN5CCC4CC5)(C1)C[C@](c1ccccc1)(C3)C2 [Example C58]
Ans: 1010

Q: What value of EC50 has been recorded for this entry: C[C@]12CC3CC(C(=O)N[C@H]4CC[C@@H](N)CC4)(C1)C[C@@](c1ccccc1)(C3)C2.Cl [Example B2]
Ans: 277

====

Below, each entry is listed alongside its reported Liver Microsome Stability % Remaining after 60 Minutes, Human.
Conditions: microsomes, 1 h
Write the number in % without appending the unit.

Q: What value of Liver Microsome Stability % Remaining after 60 Minutes, Human has been recorded for this entry: "CC1(C)CN(C(=O)C23CC4C[C@@](C)(C2)C[C@](c2ccccc2)(C4)C3)CC[C@@H]1N"
Ans: 85

Q: What value of Liver Microsome Stability % Remaining after 60 Minutes, Human has been recorded for this entry: "C[C@]12CC3CC(C(=O)N[C@H]4CC[C@@H](N)CC4)(C1)C[C@@](c1ccccc1)(C3)C2.Cl"
Ans: 100

Q: What value of Liver Microsome Stability % Remaining after 60 Minutes, Human has been recorded for this entry: CC12CC3CC(C(=O)N4CCC5(CC4)CNC5)(C1)CC(c1ccccc1)(C3)C2 (racemic)
Ans: 46

Q: What value of Liver Microsome Stability % Remaining after 60 Minutes, Human has been recorded for this entry: CC1(C)CN(C(=O)C23CC4C[C@@](C)(C2)C[C@](c2ccccc2)(C4)C3)CCC1N (stereo partly shown)
Ans: 76

Q: What value of Liver Microsome Stability % Remaining after 60 Minutes, Human has been recorded for this entry: CC12CC3CC(CN4CCC(N)CC4)(C1)CC(c1ccccc1)(C3)C2 (stereo not shown)
Ans: 98

Q: What value of Liver Microsome Stability % Remaining after 60 Minutes, Human has been recorded for this entry: CC12CC3CC(C(=O)N4CCC(N)C(C)(C)C4)(C1)CC(c1ccccc1)(C3)C2 (racemic)
Ans: 97
